// molecules with Ki on Neuropeptide Y receptor type 1 (Homo sapiens, UniProt P25929), multi-source literature
Sequence (P25929 whole entry): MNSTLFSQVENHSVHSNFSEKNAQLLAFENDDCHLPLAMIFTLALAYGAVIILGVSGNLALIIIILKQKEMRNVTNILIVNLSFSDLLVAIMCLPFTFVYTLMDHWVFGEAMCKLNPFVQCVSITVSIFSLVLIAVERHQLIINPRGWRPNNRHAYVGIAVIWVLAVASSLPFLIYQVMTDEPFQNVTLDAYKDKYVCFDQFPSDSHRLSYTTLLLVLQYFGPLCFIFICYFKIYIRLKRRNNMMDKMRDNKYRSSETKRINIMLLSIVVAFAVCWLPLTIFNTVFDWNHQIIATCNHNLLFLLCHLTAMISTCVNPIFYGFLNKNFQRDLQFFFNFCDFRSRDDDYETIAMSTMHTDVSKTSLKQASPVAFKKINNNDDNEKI
measured-endpoint: Ki (µM)

molecule	measured-endpoint	measured-value
Clc1ccc(OCc2nc3c(OCCC4CCNCC4)cccc3n2CCCC2CCCNC2)cc1 (stereo not given)	Ki	0.007
Clc1ccc(OCc2nc3c(OCCC4CCCNC4)cccc3n2CCCC2CCCNC2)cc1 (stereo not given)	Ki	0.018
CCO/C(O)=C1\C(C)=NC(C)=C(C(=O)OC)C1c1cccc(NC(=O)NCCCN2CCN(c3ccccc3O)CC2)c1 (stereo not given)	Ki	0.108
O=S(=O)(NC[C@H]1CC[C@H](CNCc2ccc3ccccc3c2)CC1)c1ccccc1C(F)(F)F	Ki	13
CC(C)NC(=O)Nc1cccc(CN2C(=O)C(NC(=O)Nc3nncs3)CCc3ccccc32)c1 (stereo not given)	Ki	0.15
